- test-protocol: Ratio of drug level in brain to plasma in rat at 10 µmol/kg, po
- experimental-conditions: read-out: BPR
observable: Kp
Numbers only.

Consider the reported Kp for these molecules:
{"columns": ["molecule", "Kp"],
 "data": [
  ["CC(C)(C)COc1nc(C(F)(F)F)ccc1CNC(=O)Nc1cccc2[nH]ncc12", 0.02],
  ["Cn1ncc2c(NC(=O)NCc3ccc(C(F)(F)F)cc3CCC(C)(C)C)cccc21", 0.32],
  ["CC(C)(C)CCc1cc(C(F)(F)F)ccc1CNC(=O)Nc1cccc2[nH]ncc12", 0.45]
]}

Attention now turns to another entry.
Inquiry: Returns the measured Kp for the input molecule. Input: CC(C)(C)c1ccc2c(c1)CC[C@H]2NC(=O)Nc1cccc2[nH]ncc12 [ABT-102]
Reply text: 0.32
